Record: compiled pIC50 on UniProtKB Q96RG2 from multiple reports.
pIC50: −log10 of the molar value.

Entry C[C@H]1CCCN1c1nc2cc(C(=O)O)ccc2nc1-c1ccc(F)c(F)c1 , system UniProtKB Q96RG2: what pIC50 was measured?
> 5.00

Give the reported pIC50 for COCc1cc(=O)n2nc(-c3ccc(Cl)cc3)cc2[nH]1 (system: UniProtKB Q96RG2).
≤ 5.00

Notebook entry, UniProtKB Q96RG2 assay: pIC50 of CN(c1nc2cc(C(=O)O)ccc2nc1-c1ccc(F)cc1)C1CCCCC1 = ?
> 5.00

Checklist item: pIC50 tested on UniProtKB Q96RG2, entry O=c1cc(-c2ccc3[nH]nnc3c2)[nH]c2c(-c3ccccc3)c(O)nn12 , value?
≥ 5.00

Notebook entry, UniProtKB Q96RG2 assay: pIC50 of O=c1cc(-c2ccc3c(c2)OCCO3)[nH]c2c(-c3ccccc3)c(C(F)(F)F)nn12 = ?
≥ 5.00

Lab note: need pIC50 with UniProtKB Q96RG2 for entry CC[C@@H](C)N(C)c1nc2cc(C(=O)O)ccc2nc1-c1cc2cc(F)ccc2o1 , please look it up.
> 5.00

Item Nc1nn2c(=O)cc(-c3ccc(Cl)cc3F)[nH]c2c1-c1ccccn1 with UniProtKB Q96RG2 - pIC50?
≥ 5.00

Param readout = pIC50; param system = UniProtKB Q96RG2; param query = C[C@H]1CCCN1c1nc2cc(-c3nn[nH]n3)ccc2nc1-c1ccc(F)cc1 ; response: value
≥ 5.00

Any idea what pIC50 came out for CCc1nc2[nH]c(-c3ccc4[nH]ncc4c3)cc(=O)n2n1 on UniProtKB Q96RG2?
≥ 5.00

Field: pIC50 (UniProtKB Q96RG2). Entry: Cc1cnc(-c2cnn3c(=O)cc(-c4ccc(Cl)c(Cl)c4)[nH]c23)s1
≥ 5.00

What pIC50 appears in the records for this compound with UniProtKB Q96RG2? CC[C@H](C)N(C)c1nc2cc(C(=O)O)ccc2nc1-c1ccc(F)cc1
> 5.00

Return pIC50 measured with UniProtKB Q96RG2 given this compound: C[C@H]1COCCN1c1nc2cc(C(=O)O)ccc2nc1-c1ccc(F)cc1
> 5.00

Missing value: pIC50, UniProtKB Q96RG2, entry O=c1cc(-c2ccc3[nH]ncc3c2)[nH]c2nc(-c3cccc(Cl)c3)nn12 . Fill in?
≥ 5.00

I'm curious: which pIC50 was measured for COc1ccc(-c2cnn3c(=O)cc(-c4ccc5c(c4)OCCO5)[nH]c23)cc1 tested on UniProtKB Q96RG2?
≥ 5.00

Lab note: need pIC50 with UniProtKB Q96RG2 for entry COc1ccc(-c2cc(=O)n3ncc(-c4ccccn4)c3[nH]2)cc1OC , please look it up.
≥ 5.00

Form field: pIC50 recorded for CCn1ncc2cc(-c3cc(=O)n4ncc(-c5cc[nH]n5)c4[nH]3)ccc21 with UniProtKB Q96RG2 (enter value)
≥ 5.00

Can you look up pIC50 on UniProtKB Q96RG2 for Cn1ncc2cc(-c3cc(=O)n4ncc(-c5ccccn5)c4[nH]3)ccc21 ?
≥ 5.00

# get_value(readout= pIC50, system= UniProtKB Q96RG2) for Cc1cc(F)ccc1-c1nc2ccc(C(=O)O)cc2nc1N1CCC[C@@H]1C
> 5.00

----------
Compiled IC50 measurements on PASK (Invitrogen) (Homo sapiens) taken from the literature.

Record Cc1noc2cc(-c3cc(=O)n4ncc(-c5ncco5)c4[nH]3)ccc12 : what is its IC50 with PASK (Invitrogen) (Homo sapiens)?
≤ 10 µM

Test system PASK (Invitrogen) (Homo sapiens); read-out IC50; what value for O=C(O)c1ccc2[nH]c(=O)c(N3CCCc4ccccc43)nc2c1 ?
> 10 µM

Give PASK (Invitrogen) (Homo sapiens) IC50 for Cc1cnc(-c2cnn3c(=O)cc(-c4ccc5c(cnn5C)c4)[nH]c23)o1
≤ 10 µM

Which IC50 is reported with PASK (Invitrogen) (Homo sapiens) for this entry: Cc1cc(F)ccc1-c1nc2ccc(C(=O)O)cc2nc1N(C)C(C)C ?
< 10 µM

# value lookup — system PASK (Invitrogen) (Homo sapiens), readout IC50, item O=C(O)c1ccc2nc(-c3cc4cc(F)ccc4o3)c(N3CCCc4ccccc43)nc2c1
≤ 10 µM

Which measured IC50 belongs to Cc1nn2c(=O)cc(-c3ccc4c(c3)OCO4)[nH]c2c1-c1cccnc1 , tested on PASK (Invitrogen) (Homo sapiens)?
≤ 10 µM

// fetch PASK (Invitrogen) (Homo sapiens) IC50 for C[C@H]1CCCCN1c1nc2cc(C(=O)O)ccc2nc1-c1ccc(F)cc1F
< 10 µM

Give IC50 (PASK (Invitrogen) (Homo sapiens)) of the following molecule: CCc1c(C)[nH]c2c(-c3ccccc3)c(Cc3ccc(OC)cc3)nn2c1=O
≥ 10 µM

Find the measured IC50: item CCc1nn2c(=O)cc(-c3ccc4c(c3)OCO4)[nH]c2c1-c1ccccn1 , target or system PASK (Invitrogen) (Homo sapiens).
≤ 10 µM

----------
Literature IC50 values, system: PASK (Invitrogen) (Homo sapiens, UniProt Q96RG2).

API: value(readout= IC50, system= PASK (Invitrogen) (Homo sapiens, UniProt Q96RG2), query= O=c1cc(-c2ccc3c(c2)OCCO3)[nH]c2c(-c3ccc(N4CCCC4)nc3)cnn12 )
≤ 10 µM

Lab note: need IC50 with PASK (Invitrogen) (Homo sapiens, UniProt Q96RG2) for entry O=c1cc(-c2ccc(F)cc2)[nH]c2c(-c3ccccn3)cnn12 , please look it up.
≤ 10 µM

What IC50 appears in the records for this compound with PASK (Invitrogen) (Homo sapiens, UniProt Q96RG2)? COc1cc(-c2cc(=O)n3ncc(-c4nc(C)co4)c3[nH]2)ccc1Cl
≤ 10 µM

What measured IC50 is associated with O=c1cc(-c2ccc3[nH]nnc3c2)[nH]c2nc(-c3cccc(Cl)c3)nn12 on PASK (Invitrogen) (Homo sapiens, UniProt Q96RG2)?
≤ 10 µM

Param readout = IC50; param system = PASK (Invitrogen) (Homo sapiens, UniProt Q96RG2); param query = NC(=O)c1nc2[nH]c(-c3ccc4nn[nH]c4c3)cc(=O)n2n1 ; response: value
≤ 10 µM

Find the measured IC50: item O=C(O)c1ccc2nc(-c3cc4ccccc4s3)c(N3CCCCC3)nc2c1 , target or system PASK (Invitrogen) (Homo sapiens, UniProt Q96RG2).
< 10 µM

Checklist item: IC50 tested on PASK (Invitrogen) (Homo sapiens, UniProt Q96RG2), entry CCn1ncc2cc(-c3cc(=O)n4ncc(-c5ccn(C)n5)c4[nH]3)ccc21 , value?
≤ 10 µM

Item: C[C@@H]1CCCCN1c1nc2cc(C(=O)O)ccc2nc1-c1ccc(F)cc1 Test system: PASK (Invitrogen) (Homo sapiens, UniProt Q96RG2) Read-out: IC50 Value: ?
< 10 µM

What is its IC50 for PASK (Invitrogen) (Homo sapiens, UniProt Q96RG2)? Entry: Cc1c[nH]c2ccc(-c3nc4ccc(C(=O)O)cc4nc3N(C)C(C)C)cc12
< 10 µM

Hi! What's the reported IC50 for CC(C)N(C)c1nc2cc(C(=O)O)ccc2nc1-c1cc2ccc(Cl)cc2o1 on PASK (Invitrogen) (Homo sapiens, UniProt Q96RG2)?
< 10 µM

Item: CCn1ncc2cc(-c3cc(=O)n4ncc(-c5ccnn5C)c4[nH]3)ccc21 Test system: PASK (Invitrogen) (Homo sapiens, UniProt Q96RG2) Read-out: IC50 Value: ?
≤ 10 µM

Find IC50 (PASK (Invitrogen) (Homo sapiens, UniProt Q96RG2)) for the entry CCOC(=O)Cc1cc(=O)n2nc(-c3ccccc3)c(-c3ccccc3)c2[nH]1
≥ 10 µM

Could you share what IC50 was measured for Cc1nn2c(=O)cc(-c3ccc4[nH]nnc4c3)[nH]c2c1Cc1ccccc1 , tested on PASK (Invitrogen) (Homo sapiens, UniProt Q96RG2)?
≤ 10 µM

Find IC50 (PASK (Invitrogen) (Homo sapiens, UniProt Q96RG2)) for the entry COc1cc(-c2cc(=O)n3ncc(-c4cc(C)n[nH]4)c3[nH]2)ccc1Cl
≤ 10 µM

Quick check: IC50 on PASK (Invitrogen) (Homo sapiens, UniProt Q96RG2), item Cc1cnc(-c2cnn3c(=O)cc(-c4ccc(Cl)cc4)[nH]c23)o1 ?
≤ 10 µM

Give recorded IC50 with PASK (Invitrogen) (Homo sapiens, UniProt Q96RG2) for the following compound: CCc1c(C)[nH]c2c(-c3ccc(Cl)cc3)c(C)nn2c1=O
≥ 10 µM

Form: Entry = CCn1nnc2cc(-c3cc(=O)n4ncc(-c5ncco5)c4[nH]3)ccc21 | System = PASK (Invitrogen) (Homo sapiens, UniProt Q96RG2) | IC50 = ____
≤ 10 µM

API: value(readout=IC50, system=PASK (Invitrogen) (Homo sapiens, UniProt Q96RG2)) for record Cc1nn2c(=O)c3c([nH]c2c1-c1ccc(Cl)cc1)CCC3
≥ 10 µM
